- target.under.test: NPR-4b (Caenorhabditis elegans, UniProt A0A078BTK0)
- Sequence (A0A078BTK0 1-376): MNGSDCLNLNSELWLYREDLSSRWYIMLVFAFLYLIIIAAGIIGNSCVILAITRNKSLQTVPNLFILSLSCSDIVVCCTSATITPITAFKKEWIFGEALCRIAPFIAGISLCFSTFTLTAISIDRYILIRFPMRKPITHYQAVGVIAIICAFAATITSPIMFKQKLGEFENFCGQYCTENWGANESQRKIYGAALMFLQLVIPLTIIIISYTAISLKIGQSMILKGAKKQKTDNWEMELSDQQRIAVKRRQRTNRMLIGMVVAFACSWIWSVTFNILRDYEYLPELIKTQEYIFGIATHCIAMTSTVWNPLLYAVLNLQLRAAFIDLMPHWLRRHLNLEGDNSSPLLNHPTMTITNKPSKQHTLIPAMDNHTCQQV
- protocol.text: cAMP reporter gene assay, Gi/o (inhibition of forskolin-induced cAMP), NPR-4b
- Assay type: cell-based, C. elegans
- protocol.conditions: 10 µM peptide; 1 µM forskolin set to 1.00; transiently transfected HEK293 cells; mean of at least three independent experiments
Entries and their cAMP, x-fold of forskolin (mean), NPR-4b values follow.

Bench note: what cAMP, x-fold of forskolin (mean), NPR-4b did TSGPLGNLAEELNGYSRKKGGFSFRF-NH2 [QRFP26, human pyroglutamylated RFamide peptide, 26 residues, reference compound] show? 0.34 x-fold of forskolin

Bench note: what cAMP, x-fold of forskolin (mean), NPR-4b did APLEGFEDMSGFLRTIDGIQKPRF-NH2 [FLP-33, NPY-like C. elegans FLP with C-terminal RxRF/Ya signature] show? 0.79 x-fold of forskolin

Bench note: what cAMP, x-fold of forskolin (mean), NPR-4b did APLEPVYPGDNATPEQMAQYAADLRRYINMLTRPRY-NH2 [PP, human pancreatic polypeptide, reference compound] show? 1.14 x-fold of forskolin

Bench note: what cAMP, x-fold of forskolin (mean), NPR-4b did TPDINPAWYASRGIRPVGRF-NH2 [PrRP20, human prolactin-releasing peptide, 20 residues, reference compound] show? 0.67 x-fold of forskolin

Bench note: what cAMP, x-fold of forskolin (mean), NPR-4b did APKPKFIRF-NH2 [FLP-5-1, C. elegans FMRFamide-like peptide, C-terminally amidated, synthesized by SPPS] show? 0.36 x-fold of forskolin

Bench note: what cAMP, x-fold of forskolin (mean), NPR-4b did EASAFGDIIGELKGKGLGGRMRF-NH2 [FLP-27, NPY-like C. elegans FLP with C-terminal RxRF/Ya signature] show? 0.57 x-fold of forskolin

Bench note: what cAMP, x-fold of forskolin (mean), NPR-4b did NPENDTPFGTMRF-NH2 [FLP-3-4, C. elegans FMRFamide-like peptide, C-terminally amidated, synthesized by SPPS] show? 0.23 x-fold of forskolin

Bench note: what cAMP, x-fold of forskolin (mean), NPR-4b did AGSDPNFLRF-NH2 [FLP-1-2, C. elegans FMRFamide-like peptide, C-terminally amidated, synthesized by SPPS] show? 0.42 x-fold of forskolin

Bench note: what cAMP, x-fold of forskolin (mean), NPR-4b did ASPSFIRF-NH2 [FLP-4-2, C. elegans FMRFamide-like peptide, C-terminally amidated, synthesized by SPPS] show? 0.19 x-fold of forskolin

Origin of measurements: paper PMC6751662
